SYSTEM_TESTED: T1, recombinant human VEGF (R&D Systems, 293-VE/CF) (Homo sapiens, UniProt P15692-4)
T1 construct: recombinant human VEGF, R&D Systems 293-VE/CF; also called VEGF antigen; source: bought: R&D Systems (293-VE/CF)
EXPERIMENT: SPR; Biacore, 25°C; VEGF amine-coupled to a CM5 chip (about 300 RU); monomeric scFv (after Superdex 75) in PBS at 10, 20, 40, 80, 160 nM, 30 µl/min, 5 min association, 10 min dissociation; global fit to 1:1 Langmuir model
PARTICULARS: both partners purified
READOUT_TYPE: Kd (nM)
Response body: numeric value in nM, unit text excluded.

Check out these entries, answers already filled in.
[[record]]
binder = "X65 scFv (VH-CDR3 variant H97Y, S100aR) (scFv, V domains shown, as the VH of m4 (WT framework) with the stated VH-CDR3 changes; scFv linker; Converted to scFv; source: Pichia pastoris X33 (pPIC6 alpha), culture supernatant, purified (Ni-NTA)) VH: EVQLVESGGGLVQPGGSLRLSCAASGYTFTNYGMNWVRQAPGKGLEWVGWINTYTGEPTYAADFKRRFTFSLDTSKSTAYLQMNSLRAEDTAVYYCAKYPYYYGRSHWYFDVWGQGTLVTVSS VL: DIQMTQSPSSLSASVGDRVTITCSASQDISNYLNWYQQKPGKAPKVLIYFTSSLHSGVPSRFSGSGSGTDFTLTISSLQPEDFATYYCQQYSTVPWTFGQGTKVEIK"
readout_type = "Kd"
test_result = 1.5

[[record]]
binder = "X78 scFv (humanization lead) (scFv, V domains shown, as the VH of m4 (WT) with the stated framework changes (Kabat numbering); scFv linker; VL paired with the VH humanization library; likely as the VL of m4; Selected as ccFv on phage, converted to scFv; source: Pichia pastoris X33 (pPIC6 alpha), culture supernatant, purified (Ni-NTA)) VH: EVQLVQSGGGVVQPGGTLRLTCAASGYTFTNYGMNWVRQAPGKGLEWVGWINTYTGEPTYAADFKRRVTFSLDTSKSTAYLQMNSLRAEDTAVYYCAKYPHYYGSSHWYFDVWGQGTLVTVSS VL: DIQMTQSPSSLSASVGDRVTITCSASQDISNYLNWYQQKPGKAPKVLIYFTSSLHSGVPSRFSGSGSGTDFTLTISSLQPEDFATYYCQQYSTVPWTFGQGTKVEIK"
readout_type = "Kd"
test_result = 5.9


# evaluate next
Ask: Complete the entry with Kd for X64 scFv (VH-CDR3 variant S100aR) (scFv, V domains shown, as the VH of m4 (WT framework) with the stated VH-CDR3 change; scFv linker; Selected as ccFv on phage, converted to scFv; source: Pichia pastoris X33 (pPIC6 alpha), culture supernatant, purified (Ni-NTA)) VH: EVQLVESGGGLVQPGGSLRLSCAASGYTFTNYGMNWVRQAPGKGLEWVGWINTYTGEPTYAADFKRRFTFSLDTSKSTAYLQMNSLRAEDTAVYYCAKYPHYYGRSHWYFDVWGQGTLVTVSS VL: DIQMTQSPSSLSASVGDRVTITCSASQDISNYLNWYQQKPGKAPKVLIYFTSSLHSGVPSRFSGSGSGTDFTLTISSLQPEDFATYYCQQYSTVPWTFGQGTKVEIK
Reply: 5.4
